- assay-text: NCI Yeast Anticancer Drug Screen. Data for the mec2-1 strain (AID 157)
- recorded-conditions: S. cerevisiae mec2-1 strain, at 50.0 µM, active compounds read high
Compounds without any hit were thinned out: in the full panel of roughly 79,000, 15% have a hit. Calls of active or inactive are those of the source. Cut-off read from the data, not from the text of the source: active = growth inhibition above about 70%; inactive = the rest.
experimental-readout: growth inhibition

* O=C1c2ccccc2C(=O)N1OCc1csc(-c2ccccc2)n1 | 6.25% (inactive)
* N#CC(=C1CCN(Cc2ccccc2)CC1)c1ccccc1 | 12.7% (inactive)
* CCc1cccc(C(C)CC)c1NC(=O)CC1C(=O)Nc2ccccc2S1=O (configuration not stated) | 0.65% (inactive)
* CC(=O)OC(C)=O | 9.9% (inactive)
* Cc1c(Br)c(Br)nn1C(C)C(=O)N(C)C (configuration not stated) | 1.6% (inactive)
* Fc1cccc2nc(-c3ccccc3)cc(OCc3ccccc3)c12 | 8.3% (inactive)
* CC(=O)CC(=O)ON(C)C(C)=O | 19.2% (inactive)
* O=C1NN(c2ccccc2)CCO1 | -3.2% (inactive)
* CC1=CC(O)C(C(O)(C(F)(F)F)C(F)(F)F)C(C)(C)C1 (configuration not stated) | -41.2% (inactive)
* CC1(c2cccs2)C(=O)NC(=O)N1C(=O)CCl (configuration not stated) | 4.55% (inactive)
* O=c1[nH]c(=O)n(COCc2ccccc2)c2ccc(Br)cc12 | -9.5% (inactive)
* CCc1ccc([OH2+])c(C(=O)[O-])c1.CCc1ccc([OH2+])c(C(=O)[O-])c1.CCc1ccc([OH2+])c(C(=O)[O-])c1.CCc1ccc([OH2+])c(C(=O)[O-])c1.[Cu+2].[Cu+2] | 2.5% (inactive)
* O=S(=O)(c1ccc(NC(=S)N2CCOCC2)cc1)N1CCCCC1 | 1.1% (inactive)
* CCCCCOC(=S)S | 11.8% (inactive)
* COc1cc(/C=C/C(=N\NC(=S)NN)c2sc(NNC(C)=O)nc2C)ccc1O | -4.5% (inactive)
* O=C(C[N+]1(c2ccccc2)CCOCC1)c1ccccc1 | 5.6% (inactive)
* O=C(Cc1ccccc1)Nc1ccccc1 | -21.1% (inactive)
* Nc1c(Cl)cnn2nnnc12 | -17.4% (inactive)
* CC(=O)NCCN1CCN(C(C)=O)CC1 | 10.7% (inactive)
* Cc1cc(S(N)(=O)=O)c(SCc2nc(N)nc(N(C)C)n2)cc1Cl | -22.3% (inactive)
* CCOc1ccccc1NC(C)=O | 6.1% (inactive)
* O=C1CC(c2ccccc2)S(=O)(=O)c2ccccc2N1 (configuration not stated) | -8.5% (inactive)
* O=C(O)CCCc1ccc(O)cc1 | 11.7% (inactive)
* COc1ccc2c(c1)CCC(c1nc3ccc(C)cc3[nH]c1=O)C2=O (configuration not stated) | 8.5% (inactive)
* CCCCNC(N)=O | -36.1% (inactive)
* Cn1ccnc1Sc1ccccn1 | 30.1% (inactive)
* CCOC(=O)C(C)(C)/C=C\C(Cl)=C(Cl)Cl | 4.2% (inactive)
* CC1OC(OC(=O)c2ccc([N+](=O)[O-])cc2)CC(OC(=O)c2ccc([N+](=O)[O-])cc2)C1OC(=O)c1ccc([N+](=O)[O-])cc1 (configuration not stated) | 5.45% (inactive)
* O=C(O)c1cc(-c2ccccc2)nc2cc(Cl)ccc12 | 12.8% (inactive)
* COc1ccc(C(=O)/C=C/c2ccc(OCC(=O)O)cc2)cc1 | 12.3% (inactive)
* O=C(c1ccc(Cl)cc1)N(C(=S)N1CCN(c2ccccc2)CC1)c1ccccc1 | -25.9% (inactive)
* CN1C(=O)CC2(C)c3cc(O)ccc3N(C)C12 (configuration not stated) | 30.1% (inactive)
* OCC1SC(O)C(O)C(O)C1O (configuration not stated) | -5.55% (inactive)
* CN1CCCCC1CCN1CCCCC1 (configuration not stated) | -10.2% (inactive)
* O=C(O)C=C1CCCCC1 | -4.2% (inactive)
* CC1CN(C(=O)OCC23COC4(C)CCC(C)(OC2)N34)CC(C)O1 (configuration not stated) | -18% (inactive)
* O=C(O)CCc1nc[nH]c1[N+](=O)[O-] | -10.6% (inactive)
* O=C(O)CCCCC1CCCC1 | 8.3% (inactive)
* CCCCC(O)C(C)(C)C (configuration not stated) | -8.65% (inactive)
* Cc1ccc2occ(/C=N/NC(N)=S)c(=O)c2c1 | -2.7% (inactive)
* COC(=O)c1ccccc1N(C(=O)c1ccccc1)c1ccccc1C | -13.3% (inactive)
* CC(=O)OCC1OC(Nc2[nH]c(=O)n(C)c(=O)c2C=O)C(OC(C)=O)C(OC(C)=O)C1OC(C)=O (configuration not stated) | 9.4% (inactive)

* * *

- assay-text: NCI Yeast Anticancer Drug Screen. Data for the cln2 rad14 strain (AID 165);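 note: 0% = growth equal to vehicle treated cultures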
- recorded-conditions: S. cerevisiae cln2 rad14 strain, at 50.0 µM, active compounds read high
About 79,000 compounds went through this panel and 15% of them were active in at least one assay; those are over-represented in the sample as a whole. The source made the active and inactive calls. Cut-off read from the data, not from the text of the source: active = growth inhibition above about 70%; inactive = the rest.
experimental-readout: growth inhibition

* C/C(=C/CCl)[N+](=O)[O-] | -7.35% (inactive)
* N#Cc1nc(-c2ccccc2)c(-c2ccccc2)nc1C#N | -7.05% (inactive)
* C(=Nc1cccc2ccccc12)Nc1cccc2ccccc12 | -6.7% (inactive)
* CCOC(=O)OCCOCCOC(=O)OCC | 19.2% (inactive)
* C1CSCCCSCCSCCCSC1 | 5.3% (inactive)
* CC(=O)Oc1ccc(C(C)C)cc1 | -13.6% (inactive)
* O=C1CCC(=O)Nc2ccc3nc4ccccc4c(c3c2)SCCCCCCCCCCCCSc2c3ccccc3nc3ccc(cc23)N1 | -36.4% (inactive)
* NC(Cc1c[nH]c2ccc([N+](=O)[O-])cc12)C(=O)O (stereo not given) | 2.45% (inactive)
* O=[N+]([O-])c1ccc(O)c(N=Cc2ccc(C=Nc3cc([N+](=O)[O-])ccc3O)cc2)c1 | 1.2% (inactive)
* S=C=Nc1ccc(CSc2nc3ccccc3[nH]2)cc1 | 2.4% (inactive)

* * *

Catalogue of growth inhibition values
- assay-text: NCI Yeast Anticancer Drug Screen. Data for the sgs1 mgt1 strain (AID 161);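 note: 0% = growth of cultures given vehicle only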
- recorded-conditions: S. cerevisiae sgs1 mgt1 strain, at 50.0 µM, active compounds read high
- Experimental: Growth inhibition of yeast strains with defined genetic alterations is measured as a screen for potential anti-cancer activity. Selected strains with alterations in DNA damage repair or cell cycle control were exposed to compounds and growth inhibition was measured relative to vehicle treated controls. The strain used in this assay is sgs1 mgt1
The panel holds about 79,000 compounds, 15% with a hit somewhere; the sample as a whole holds those more often.
experimental-readout: growth inhibition (%)

- CC(=S)N=Cc1c(C)[nH]n(-c2ccccc2)c1=O: -41.4
- CN(Cc1ccccc1)c1ccccn1: -18.9
- C(=C\c1ccc2ccc(/C=C/c3ccccc3)cc2c1)/c1ccccc1: 12.1

* * *

- assay-text: NCI Yeast Anticancer Drug Screen. Data for the rad50 strain (AID 155);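 note: 0% = growth of vehicle-only cultures of the same strain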
- recorded-conditions: S. cerevisiae rad50 strain growth inhibition; at 50.0 µM; active compounds read high
- Procedure: Growth inhibition of yeast strains with defined genetic alterations is measured as a screen for potential anti-cancer activity. Selected strains with alterations in DNA damage repair or cell cycle control were exposed to compounds and growth inhibition was measured relative to vehicle treated controls. The strain used in this assay is rad50
This is part of a sample that, as a whole, favours compounds with a hit. Of some 79,000 tested, about 15% had one in any assay. The source made the active and inactive calls. No stated cut-off is given here; in the data, active means growth inhibition above about 70%; inactive means the rest.
Catalogue of growth inhibition values
experimental-readout: growth inhibition

- Cc1cc(Cl)nc2ccc(Cc3ccc(Cl)cc3)cc12: 16.7% (inactive)
- COC(=O)c1ccc2c(ccc[n+]2C)c1: -0.6% (inactive)
- CCc1nc(N)nc(C(=O)NCCNC(=O)c2nc(N)nc(CC)c2C)c1C: -38.1% (inactive)
- O=C(NNc1nc(N2CCOCC2)nc(N2CCOCC2)n1)c1ccccc1: 16.6% (inactive)
- CC1(C)[C@@H]2C[C@H]1C(Cc1ccccc1C[C@H]1c3cc(-c4ccccn4)ncc3[C@H]3C[C@@H]1C3(C)C)c1cc(-c3ccccn3)ncc12 (stereo partly specified): 43.3% (inactive)
- COc1c(OC)c(C(C)C)c2c(c1C(=O)O)C(=O)OC2=O: -5.6% (inactive)
- CC1CCCCc2nc3c(c(=O)n21)CCCC3 (stereo unspecified): 9.3% (inactive)
- O=NC1C(Cl)C2CC1C1COCC21 (stereo unspecified): -16% (inactive)
- CC1=NN(C(=O)c2cccnc2)C(=O)C1N=Nc1ccc(S(=O)(=O)N=C(N)N)cc1 (stereo unspecified): 4.8% (inactive)
- O=S(=O)(CS(=O)(=O)Nc1ccccc1)Nc1ccccc1: 21.1% (inactive)
- Cc1cc(C(=O)C=[N+]=[N-])c(CN2C(=O)c3ccccc3C2=O)c(=O)n1C: -0.8% (inactive)
